Source listed as the supplement of paper PMC7877785.

# test_description: self-splicing fitness, log relative to wild type (ln ratio); higher = more splicing; Tetrahymena group I intron in knt gene, E. coli kanamycin selection, DiMSum; sequences stand for … in CUCUCU…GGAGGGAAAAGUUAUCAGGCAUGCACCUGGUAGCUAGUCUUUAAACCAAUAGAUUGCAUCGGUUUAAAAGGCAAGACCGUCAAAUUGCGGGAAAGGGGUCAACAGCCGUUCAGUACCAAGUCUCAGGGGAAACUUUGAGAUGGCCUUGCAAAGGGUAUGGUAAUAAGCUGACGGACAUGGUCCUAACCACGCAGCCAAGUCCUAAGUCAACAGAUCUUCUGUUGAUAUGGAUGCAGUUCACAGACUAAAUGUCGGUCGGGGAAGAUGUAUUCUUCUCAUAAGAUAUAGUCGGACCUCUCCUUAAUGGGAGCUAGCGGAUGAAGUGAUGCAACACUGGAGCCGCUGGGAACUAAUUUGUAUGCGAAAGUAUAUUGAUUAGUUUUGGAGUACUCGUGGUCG;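 further: selection with 25 µg/mL kanamycin versus none on LB agar overnight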
# run_parameters: 30 °C
Respond with Met for self-splicing fitness (ln) values of -1 and above, Not met for values below.

Data request: Is self-splicing fitness (ln) at least -1? Consider AGGGAGCAAUAUUACGUUGU
Data returned: Not met

Data request: Entry GGGGAGCAAUAUUACGUGUG please
Data returned: Not met

Data request: Entry CGAUAGCAAUAUUACGCGAC please
Data returned: Not met

Data request: Entry GUUUAGCAAUAUUACGACCU please
Data returned: Not met

Data request: Entry AACAAGCAAUAUUACGGCUU please
Data returned: Not met

Data request: Entry GUAAAGCAAUAUUACGCGAU please
Data returned: Not met

Data request: Entry AAGGAGCAAUAUUACGAGAA please
Data returned: Not met

Data request: Entry GCAGAGCAAUAUUACGAGCU please
Data returned: Not met

Data request: Entry UCAUAGCAAUAUUACGGGCG please
Data returned: Not met

Data request: Entry UGAGAGCAAUAUUACGUGCU please
Data returned: Not met

Data request: Entry GUAUAGCAAUAUUACGACGU please
Data returned: Met

Data request: Entry CGCUAGCAAUAUUACGAGCU please
Data returned: Met

Data request: Entry GAAAAGCAAUAUUACGCGAG please
Data returned: Not met

Data request: Entry CAGCAGCAAUAUUACGUGAG please
Data returned: Met

Data request: Entry UAUCAGCAAUAUUACGUGAG please
Data returned: Met

Data request: Entry CAUAAGCAAUAUUACGCCCU please
Data returned: Not met

Data request: Entry GAACAGCAAUAUUACGCCUG please
Data returned: Not met

Data request: Entry GUUGAGCAAUAUUACGGAAC please
Data returned: Not met

Data request: Entry AGAUAGCAAUAUUACGCGAG please
Data returned: Not met

Data request: Entry GCGCAGCAAUAUUACGUCGA please
Data returned: Met

Data request: Entry UUGAAGCAAUAUUACGUGGC please
Data returned: Not met

Data request: Entry ACAGAGCAAUAUUACGAUGG please
Data returned: Not met

Data request: Entry CAAAAGCAAUAUUACGGCUA please
Data returned: Met

---

# test_description: self-splicing fitness, log relative to wild type (ln ratio); higher = more splicing; Tetrahymena group I intron in knt gene, E. coli kanamycin selection, DiMSum; sequences stand for … in CUCUCU…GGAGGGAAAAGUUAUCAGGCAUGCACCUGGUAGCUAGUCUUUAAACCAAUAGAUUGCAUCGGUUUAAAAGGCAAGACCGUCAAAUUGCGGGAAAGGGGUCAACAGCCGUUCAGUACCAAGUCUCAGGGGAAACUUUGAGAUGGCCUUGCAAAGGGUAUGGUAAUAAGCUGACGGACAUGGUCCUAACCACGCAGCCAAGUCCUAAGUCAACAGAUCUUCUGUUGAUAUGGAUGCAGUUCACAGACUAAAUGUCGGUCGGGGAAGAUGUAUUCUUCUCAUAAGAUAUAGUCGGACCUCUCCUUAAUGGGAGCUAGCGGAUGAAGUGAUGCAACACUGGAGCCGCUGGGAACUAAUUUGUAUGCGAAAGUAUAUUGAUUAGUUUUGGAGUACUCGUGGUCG
# run_parameters: 30 °C
measurement_label: self-splicing fitness (ln)
Keep it simple and answer with nothing but the number.

Data request: Requested read-out: self-splicing fitness (ln). Entry: UAAGAGCAAUAUUACGCGAG
Data returned: -3.96

Data request: Entry GGCAAGCAAUAUUACGGGAA please
Data returned: -1.34

Data request: Entry GGGUAGCAAUAUUACGGUUA please
Data returned: -1.43

Data request: Entry CAUCAGCAAUAUUACGCGUG please
Data returned: -3.13

Data request: Entry AUAUAGCAAUAUUACGGUGU please
Data returned: -2.03

Data request: Entry UAUGAGCAAUAUUACGCAAC please
Data returned: -2.22

Data request: Entry UACCAGCAAUAUUACGGUGA please
Data returned: -0.536

Data request: Entry UUCCAGCAAUAUUACGUCGA please
Data returned: -0.549

Data request: Entry UAAUAGCAAUAUUACGGCGC please
Data returned: -3.51

Data request: Entry AGGUAGCAAUAUUACGAUGG please
Data returned: -3.63

Data request: Entry CCCGAGCAAUAUUACGGCUU please
Data returned: -3.29

Data request: Entry CCCUAGCAAUAUUACGGCUC please
Data returned: -4.27

Data request: Entry GCCUAGCAAUAUUACGACUC please
Data returned: -0.376

Data request: Entry GAACAGCAAUAUUACGCAAU please
Data returned: -1.53
